measuredOn: T1, canine OX40L, full length membrane form, expressed on HEK293 cells (canine)
T1 chain: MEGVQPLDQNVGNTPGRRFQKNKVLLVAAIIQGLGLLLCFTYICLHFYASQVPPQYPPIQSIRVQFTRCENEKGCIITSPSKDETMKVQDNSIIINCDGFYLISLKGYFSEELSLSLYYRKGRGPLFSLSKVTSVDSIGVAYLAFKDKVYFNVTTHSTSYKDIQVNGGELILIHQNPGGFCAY
methodSummary: cell-based or functional assay
reportedMetric: % Signal Inhibition Rep3 (%)
Numbers only here, please. The scale is %.

Just so you know, measured % Signal Inhibition Rep3 for PMX048 (antibody, V domains shown, also called PMX48) VH: EVQLVESGGDLVKPGGSLRLSCVASGFTFNNYEMYWVRQAPGKGLEWVARIYESGTTTYSAEADTGRFTISRDNAKNMVFLQMNSLRAEDTAVYYCASASSSTWRFDYWGQGTLVTVSS VL: SYVLTQLPSVSVTLGQTARITCGGDSIGRKNVYWFQQKLGQAPVLIIYDDRSRPSGIPERFSGANSGNTATLTISGALAEDEADYYCQVWDSSTGVFGGGTHLTVL came out at 82.9

Moving on to the next binder.
Just so you know, measured % Signal Inhibition Rep3 for PMX101 (antibody, V domains shown) VH: EVQLVESGGDLVRPGGSLRLSCVASGFTFSNYHMSWVRQAPGKGLQWVAFINSGGSSTSYADAVRGRFTISRDYAKNTLYLQMNSLRAEDTAVYYCASGSIWTHFDYWGQGTLVTVSS VL: SFVLTQLPSVSVTLRQTARITCGGDIIGSKSVYWFQQKLGQAPILIIYRDDNRPTGIPERFSGASSGNTATLIISGALAEDEAHYYCQVWDSSSKAMFGGGTHLTVL came out at 44.4

Attribution: patent US20250340659A1
